# Target Entity: T1, soluble human recombinant CD4 expressed in baculovirus (human, UniProt P01730 26-396, limits assumed)
# T1 construct: Coated on plates for the ELISA and covalently immobilised on the sensor for BIAcore; Only called soluble; also called soluble CD4; CD4 expressed in the baculovirus
# Test Name: SPR (BIAcore), CD4 immobilised
Measurement Type: Kd (µM)
Please reply with the bare figure in µM and do not write the unit itself.

Give a short answer stating reported Kd for mutant Fab W52-H of the 13B8.2 antibody (Fab, V domains shown, Chimeric Fab with human CH1-γ1 and Cκ; baculovirus/Sf9) VH: QVQLKQSGPGLVQPSQSLSITCTVSGFSLTTFGVHWVRQSPGKGLEWLGVIARSGITDYNVPFMSRLSITKDNSKSQVFFKLNSLQPDDTAIYYCAKNDPGTGFAYWGQGTLVTVSA VL: DIQMTQSPASLSASVGETVTFTCRASENIYSYLAWYQQKQGKSPQLLVHDAKTLAEGVPSRFSGGGSGTQFSLKINTLQPEDFGTYYCQHHYGNPPTFGGGTKLEIK .
3.62
